molecular target: delta opioid receptor, mouse vas deferens (MVD)(δ) (Mus musculus, UniProt P32300); construct: tissue Charles River; experiment: delta opioid agonist activity in mouse vas deferens (inhibition of electrically-induced contractions); settings: isolated mouse vas deferens; inhibition of electrically-induced contractions in the presence of 300 nM mu-selective antagonist CTOP; measure of δ agonism
Sequence (P32300 whole entry): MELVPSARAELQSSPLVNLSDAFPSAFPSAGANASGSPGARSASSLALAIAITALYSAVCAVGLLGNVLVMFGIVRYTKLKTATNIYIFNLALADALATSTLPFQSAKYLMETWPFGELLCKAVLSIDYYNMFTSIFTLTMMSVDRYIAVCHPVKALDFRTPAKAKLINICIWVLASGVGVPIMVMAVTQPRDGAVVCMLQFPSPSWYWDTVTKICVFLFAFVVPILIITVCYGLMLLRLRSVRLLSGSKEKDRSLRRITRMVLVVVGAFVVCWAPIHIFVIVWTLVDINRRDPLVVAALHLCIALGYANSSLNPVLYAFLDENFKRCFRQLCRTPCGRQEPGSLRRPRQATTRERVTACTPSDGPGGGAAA
PROPERTY NAME: IC50 (nM)
Note: unit nM is implicit; provide only the numeric part.

Query: GET /values?readout=IC50&item= `C[C@@H]1CN([C@H](c2ccc(-c3nnn[nH]3)cc2)c2cccc(O)c2)[C@@H](C)CN1Cc1ccccc1`
Reply: 0.0126

Query: I am curious: what IC50 value has been reported for `C=CCN1C[C@H](C)N([C@H](c2ccc(-c3nnn(CCCCC(=O)O)n3)cc2)c2cccc(O)c2)C[C@H]1C` ?
Reply: 0.316

Query: Give its IC50 value. Item: `C=CCN1C[C@H](C)N([C@H](c2ccc(-c3nnn[nH]3)cc2)c2cccc(O)c2)C[C@H]1C`
Reply: 0.2
